Target: RORγ LBD-GST tagged (Homo sapiens, UniProt P51449)
Construct: RORγ LBD-GST tagged (Cat No. RORC-114H, Creative Biomart); purchased Creative Biomart RORC-114H
Assay: LanthaScreen TR-FRET RORγ coactivator assay
Format: biochemical
Settings: Fluorescein-D22 coactivator peptide, 1 hour room temperature
Experimental: LanthaScreen TR-FRET Retinoid-Related Orphan Receptor Gamma (RORγ) Coactivator Assay Materials and Reagents • 1. […] Fluorescein-D22 coactivator peptide (Cat No. PV4386, Invitrogen) • 3. […] Tecan Infinite M1000 plate reader (Tecan) Experimental Procedure Prepare Complete TR-FRET Coregulator Buffer D by adding 1 M DTT to TR-FRET Coregulator Buffer D to the final concentration of 5 mM DTT. […] Read the plate at wavelengths of 520 nm and 495 nm on Tecan Infinite M1000. […]
Each item that follows carries a reported IC50.
Numeric only. Scale: µM

molecule="CCS(=O)(=O)c1ccc(C(CO)c2nc3c(Cl)c(-c4ccccc4C(C)C)c(Cl)cc3[nH]2)cc1 (stereo not shown)" result_unit=µM quantitative_result=0.433
molecule=CCS(=O)(=O)c1ccc(Cc2nc3c(Cl)c(-c4ccccc4C(C)C)c(Cl)cc3[nH]2)cc1 result_unit=µM quantitative_result=0.348
molecule=O=S(=O)(CC1CC1)c1ccc(Cc2nc3c(Cl)c(-c4ccccc4C(F)(F)F)c(Cl)cc3[nH]2)cc1 result_unit=µM quantitative_result=0.007
molecule=N#Cc1ccccc1-c1c(Cl)cc2[nH]c(Cc3ccc(S(=O)(=O)CC4CC4)cc3)nc2c1Cl result_unit=µM quantitative_result=0.065
molecule="CCS(=O)(=O)c1ccc(C(CO)c2nc3c(Cl)c(-c4ccccc4OCCOC)c(Cl)cc3[nH]2)cc1 (stereo not shown)" result_unit=µM quantitative_result=0.013
molecule=CCS(=O)(=O)c1ccc(Cc2nc3c(Cl)c(-c4ccccc4OC(F)F)c(Cl)cc3[nH]2)c(F)c1 result_unit=µM quantitative_result=0.065

query: Item CCCS(=O)(=O)c1ccc(C(O)c2nc3c(Cl)c(-c4ccccc4OC(F)(F)F)c(Cl)cc3[nH]2)cc1 (stereo not shown) : provide IC50
result: 0.135

====

Molecular target: RORγ LBD-GST tagged (Homo sapiens)
Construct: RORγ LBD-GST tagged (Cat No. RORC-114H, Creative Biomart); purchased Creative Biomart RORC-114H
Test: LanthaScreen TR-FRET RORγ coactivator assay
Type: biochemical
Settings: Fluorescein-D22 coactivator peptide, 1 hour room temperature
REPORTED_ENDPOINT: IC50 (µM)
Numeric only. Scale: µM

compound="CCS(=O)(=O)c1ccc(C(CO)c2nc3c(Cl)c(-c4ccccc4OC(C)C)c(Cl)cc3[nH]2)cc1 (stereo not drawn)" quantitative_result=0.475
compound=CCS(=O)(=O)c1ccc(Cc2nc3c(Cl)c(-c4ccccc4N(C)C)c(Cl)cc3[nH]2)cc1 quantitative_result=0.489
compound="CCOc1ccccc1-c1c(Cl)cc2nc(C(O)c3ccc(S(=O)(=O)CC4CC4)cc3)[nH]c2c1Cl (stereo not drawn)" quantitative_result=0.018
compound="CCS(=O)(=O)c1ccc(C(CO)c2nc3c(F)c(-c4ccccc4F)c(F)cc3[nH]2)cc1 (stereo not drawn)" quantitative_result=0.076

Read the next record carefully.
query: Give the value of IC50 reported for the following: `CS(=O)(=O)c1ccc(Cc2nc3c(Cl)c(-c4ccccc4C(F)(F)F)c(Cl)cc3[nH]2)cc1`
result: 0.535

====

compounds and their reported IC50
Tested on: IL-17 production, human PBMC cells
Experiment: IL-17 production assay using human PBMC
Type: cell-based
Conditions: human PBMC stimulated by cytostim for 3 days, IL-17 ELISA of supernatant
Description: Test Example 2. IL-17 Production Assay Using Human PBMC • 1. Human PBMC cells (Cat No. 70025.1, Zenbio) • 2. Lymphocyte medium (Cat No. LYMPH-1, Zenbio) • 3. TexMACS (Cat No. 130-097-196, Miltenyi) • 4. Cytostim-human (Cat No. 1130-092-173, Miltenyi) • 5. Human IL-17 ELISA (Cat No. D1700, R&D systems) • 6. Tecan Infinite M1000 plate reader (Tecan) Experimental Procedure for IL-17 Production Assay […]
I'd appreciate it if you included the unit after the number.

Previously resolved entries follow.
compound="CC(C)Oc1ccccc1-c1cc2nc(C(CC(N)=O)c3ccc(S(=O)(=O)CC4CC4)cc3)[nH]c2cc1Cl (single isomer, unassigned) [the longer retention time of 148 and 149]" result="0.022 µM"
compound="CC(C)Oc1ccccc1-c1cc2nc(C(CC(N)=O)c3ccc(S(=O)(=O)CC4CC4)cc3)[nH]c2cc1Cl (single isomer, unassigned) [the shorter retention time of 148 and 149]" result="0.555 µM"
compound="CCS(=O)(=O)c1ccc(C(CC(N)=O)c2nc3c(Cl)c(N4CCC(F)(F)CC4)c(Cl)cc3[nH]2)cc1 (single isomer, unassigned) [the shorter retention time of 146 and 147]" result="0.315 µM"
compound="NC(=O)CC(c1ccc(S(=O)(=O)CC2CC2)cc1)c1nc2cc(Cl)c(N3CCC(F)(F)CC3)c(Cl)c2[nH]1 (single isomer, unassigned) [the longer retention time of 162 and 163]" result="0.029 µM"
compound="CC(C)Oc1ccccc1-c1cc2nc(C(CCO)c3ccc(S(=O)(=O)CC4CC4)cc3)[nH]c2cc1Cl (single isomer, unassigned) [the shorter retention time of 150 and 151]" result="0.718 µM"
compound="O=S(=O)(CC1CC1)c1ccc(C(CCO)c2nc3cc(-c4ccccc4OC(F)F)c(Cl)cc3[nH]2)cc1 (single isomer, unassigned) [the longer retention time of 155 and 156]" result="0.026 µM"

query: Dear colleague, please send me the reported IC50 for CC(=O)NCCC(c1ccc(S(=O)(=O)CC2CC2)cc1)c1nc2cc(-c3ccccc3OC(F)F)c(Cl)cc2[nH]1 (single isomer, unassigned) [166 or 167 made from Int-164B] when you can.
result: 0.072 µM

====

Biological target: RORγ LBD-GST tagged (Homo sapiens)
Construct: RORγ LBD-GST tagged (Cat No. RORC-114H, Creative Biomart); purchased Creative Biomart RORC-114H
Sequence (P51449 269-508 limits assumed): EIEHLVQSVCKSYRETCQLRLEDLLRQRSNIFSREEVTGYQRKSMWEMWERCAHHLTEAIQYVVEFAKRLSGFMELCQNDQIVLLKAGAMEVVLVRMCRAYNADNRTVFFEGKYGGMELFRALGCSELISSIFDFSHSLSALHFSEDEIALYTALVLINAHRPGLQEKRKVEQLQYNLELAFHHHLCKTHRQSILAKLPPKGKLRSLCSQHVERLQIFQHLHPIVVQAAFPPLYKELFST
Assay: LanthaScreen TR-FRET RORγ coactivator assay
Assay type: biochemical
Conditions: Fluorescein-D22 coactivator peptide, 1 hour room temperature
# binning rule on IC50: low: < 0.05 µM; medium: ≥ 0.05 µM and < 0.3 µM; high: ≥ 0.3 µM

Example entries begin here.
molecule="O=S(=O)(CC1CC1)c1ccc(C(O)c2nc3c(Cl)c(-c4ccccc4F)c(Cl)cc3[nH]2)cc1 (stereo not drawn) [Example 75]" target="RORγ LBD-GST tagged (Homo sapiens)" discrete_label=low
molecule="O=S(=O)(CC1CC1)c1ccc(C(CO)c2nc3c(Cl)c(-c4ccccc4C(F)(F)F)c(Cl)cc3[nH]2)cc1 (stereo not drawn) [Example 70]" target="RORγ LBD-GST tagged (Homo sapiens)" discrete_label=low
molecule="CCS(=O)(=O)c1ccc(C(N)c2nc3c(Cl)c(-c4ccccc4OC(F)(F)F)c(Cl)cc3[nH]2)cc1 (stereo not drawn) [Example 43]" target="RORγ LBD-GST tagged (Homo sapiens)" discrete_label=high
molecule="CCS(=O)(=O)c1ccc(C(CO)c2nc3cc(-c4ccccc4OC(F)(F)F)c(Cl)cc3[nH]2)cc1 (stereo not drawn) [Example 119]" target="RORγ LBD-GST tagged (Homo sapiens)" discrete_label=low

query: Class for CS(=O)(=O)c1ccc(C(O)c2nc3c(Cl)c(-c4ccccc4OC(F)(F)F)c(Cl)cc3[nH]2)cc1 (stereo not drawn) [Example 58] ?
result: medium

query: Place this molecule in its band: CC(C)S(=O)(=O)c1ccc(C(O)c2nc3c(Cl)c(-c4ccccc4OC(F)(F)F)c(Cl)cc3[nH]2)cc1 (stereo not drawn) [Example 106]
result: low

query: Class? Entry: O=S(=O)(CC1CC1)c1ccc(C(CO)c2nc3c(Cl)c(-c4ccccc4OC(F)F)c(Cl)cc3[nH]2)cc1 (stereo not drawn) [Example 73]
result: low

query: Determine which band this molecule sits in: CCS(=O)(=O)c1ccc(C(NC(=O)COC)c2nc3c(Cl)c(-c4ccccc4OC(F)F)c(Cl)cc3[nH]2)cc1 (stereo not drawn) [Example 41]
result: high

====

System: IL-17 production, human PBMC cells
Assay: IL-17 production assay using human PBMC
Type: cell-based
Conditions: Homo sapiens, PBMC, 72 h, human PBMC stimulated by cytostim for 3 days, IL-17 ELISA of supernatant
So basically: is IC50 under 0.03 µM? Then Met. Not under? Then Not met.

For orientation, consider the following solved cases.
molecule="CCS(=O)(=O)c1ccc(C(CO)c2nc3c(Cl)c(-c4ccccc4OCOC)c(Cl)cc3[nH]2)cc1 (stereo not drawn)" discrete_label=Met
molecule="CCS(=O)(=O)c1ccc(C(CO)c2nc3c(Cl)c(-c4ccccc4OC)c(Cl)cc3[nH]2)cc1 (stereo not drawn)" discrete_label=Met
molecule="CS(=O)(=O)c1ccc(C(CO)c2nc3c(Cl)c(-c4ccccc4C(F)(F)F)c(Cl)cc3[nH]2)cc1 (stereo not drawn)" discrete_label=Met
molecule=CCOc1ccccc1-c1c(Cl)cc2nc(Cc3ccc(S(=O)(=O)CC4CC4)cc3)[nH]c2c1Cl discrete_label=Met
molecule=O=S(=O)(CC1CC1)c1ccc(Cc2nc3c(Cl)c(-c4ccccc4OC(F)(F)F)c(Cl)cc3[nH]2)c(F)c1 discrete_label=Met

query: Please indicate whether the reported IC50 of O=S(=O)(CC1CC1)c1ccc(C(CCO)c2nc3cc(Cl)c(N4CCC(F)(F)CC4)c(Cl)c3[nH]2)cc1 (single isomer, unassigned) is strictly below 0.03 µM.
result: Met

query: Please check: IC50 for CCS(=O)(=O)c1ccc(C(CO)c2nc3c(Cl)c(-c4ccccc4OC(C)C)c(Cl)cc3[nH]2)cc1 (stereo not drawn) , strictly under 0.03 µM or not?
result: Met

query: In the record for `O=S(=O)(CC1CC1)c1ccc(Cc2nc3c(Cl)c(-c4ccccc4OC(F)(F)F)c(Cl)cc3[nH]2)cc1` , is IC50 less than 0.03 µM?
result: Met

query: Identify whether the molecule CCS(=O)(=O)c1ccc(C(O)c2nc3c(Cl)c(-c4ccccc4CCC(F)(F)F)c(Cl)cc3[nH]2)cc1 (stereo not drawn) records IC50 below 0.03 µM.
result: Met

query: Identify whether the molecule CCS(=O)(=O)c1ccc(C(CO)c2nc3cc(-c4ccccc4OC(F)(F)F)c(Cl)cc3[nH]2)cc1 (stereo not drawn) records IC50 below 0.03 µM.
result: Not met
